- Tested on: Streptococcus pyogenes SSI-9
- RUN DESCRIPTION: Antibacterial activity assay of bead-derived peptides (three concentrations)
- Type: cell-based
- Set-up: key: +++: inhibition by the 640-fold diluted peptide solution; ++: inhibition by the 160-fold diluted solution; +: inhibition by the 40-fold diluted solution; -: no inhibition
- EXPERIMENTAL CONTEXT: S. pyogenes, bead-derived peptide solution, three concentrations
Where a SMILES comes first, the peptide text is derived from it. [ ]: non-standard residue; d: D form. The star is where a group is joined. NHCH2CH2OH = OCCN*; For = O=C*
QUANTITY: antibacterial activity

[[record]]
compound = "CNC(=O)C[C@@H](NC(=O)[C@H](Cc1c[nH]c2ccccc12)NC(=O)[C@@H](CC(C)C)NC(=O)[C@H](Cc1c[nH]c2ccccc12)NC(=O)[C@H](NC(=O)[C@H](Cc1c[nH]c2ccccc12)NC(=O)[C@H](NC(=O)[C@@H](NC(=O)[C@@H](CC(C)C)NC(=O)[C@H](C)NC(=O)[C@@H](CC(C)C)NC(=O)[C@H](C)NC(=O)CNC(=O)[C@@H](NC=O)C(C)C)C(C)C)C(C)C)C(C)C)C(=O)N[C@@H](Cc1c[nH]c2ccccc12)C(=O)NCCO [compound 9609] (For-VGA[dL]A[dL]V[dV]W[dV]W[dL]W[dD](NHMe)W-NHCH2CH2OH)"
measured_value = "-"

[[record]]
compound = "CNC(=O)C[C@@H](NC(=O)[C@@H](NC(=O)[C@@H](CC(C)C)NC(=O)[C@H](C)NC(=O)[C@@H](CC(C)C)NC(=O)[C@H](C)NC(=O)CNC(=O)[C@@H](NC=O)C(C)C)C(C)C)C(=O)N[C@@H](Cc1c[nH]c2ccccc12)C(=O)N[C@@H](C(=O)N[C@@H](Cc1c[nH]c2ccccc12)C(=O)N[C@H](CC(C)C)C(=O)N[C@@H](Cc1c[nH]c2ccccc12)C(=O)N[C@H](CC(C)C)C(=O)N[C@@H](Cc1c[nH]c2ccccc12)C(=O)NCCO)C(C)C [compound 6703] (For-VGA[dL]A[dL]V[dD](NHMe)W[dV]W[dL]W[dL]W-NHCH2CH2OH)"
measured_value = "-"

